test system: UACC-257; experiment: NCI tumour cell line growth inhibition, 48 h
Calls of active or inactive are those of the source. Cut-off read from the data, not from the text of the source: active = GI50 up to about 1.1 µM and inactive = higher.
Hi there, use one of these labels in your reply, thanks! active, inactive

Before answering, review these 3 worked examples.
COMPOUND: CC1(c2ccc(Cl)cc2)C=C(c2ccc(Cl)cc2)C(C#N)=C(C(C#N)C#N)N1.CNC (centres undefined)
GROUP: inactive
//
COMPOUND: COc1cc(/C=C/C(=O)CC(=O)/C=C/c2ccc(O)c(OC)c2)ccc1O [CURCUMIN]
GROUP: inactive
//
COMPOUND: FC(F)(F)c1ccc2c(c1)nc(Cc1ccc(Cl)c(Cl)c1)n2CC1CCCN2CCCCC12 (centres undefined)
GROUP: inactive

INPUT: For O=C1CCCCC/C=C2/CC[C@H](Sc3ccccc3)[C@@H]12 , which call appears in the assay record?
OUTPUT: inactive

INPUT: What did the test return for COc1ccc(/C=C2\CC3C4CC=C5C[C@@H](O)CC[C@]5(C)C4CC[C@]3(C)C2=O)cc1OC (some centres undefined) ?
OUTPUT: inactive

INPUT: Could you please tell me the result logged for COc1ccc2c(c1)[n+]([O-])c(-c1cccc(Cl)c1)c(N)[n+]2[O-] in this assay?
OUTPUT: inactive

INPUT: Call for entry O=c1c(Sc2ncccn2)c(Sc2ncccn2)cnn1CCl :
OUTPUT: inactive

INPUT: Which result was noted for this compound in the test: COc1cc(C2SC(=N)Nc3c2c(C)nn3C(=O)c2ccccc2O)ccc1O (centres undefined)
OUTPUT: active

INPUT: Call for entry O=c1[nH]c2nc(S)nc(S)c2[nH]1 :
OUTPUT: inactive

INPUT: Recorded test call requested for CCOC(=O)/C=C(\C(=O)OCC)n1ccc(=O)n(Cc2cnnn2CCCCOC(C)=O)c1=O
OUTPUT: inactive

INPUT: Entry Cc1nc(C)c(C(=O)NNC(=O)Cc2ccccc2)cc1C(=O)NNC(=O)Cc1ccccc1 : call = ?
OUTPUT: inactive

INPUT: Check the results log: what was the call for COc1cc2c(c(OC)c1OC)-c1ccc(OC)c(=O)cc1C(NC(=O)COc1ccccc1)CC2 (centres undefined) ?
OUTPUT: active

INPUT: # lookup: test call for COc1ccc2c(c1)C(N)=C(c1ccccc1OC)C2=O
OUTPUT: inactive

INPUT: Assay result, entry Cc1ccc(/C=C2\Cc3c(C)cc(C)cc3C2=O)c(C(=O)O)c1 — outcome?
OUTPUT: inactive

INPUT: Check the results log: what was the call for O=C1OC(=O)c2c1cc1cc3c(cc1c2-c1ccc2c(c1)OCO2)OCO3 ?
OUTPUT: inactive

Where these numbers come from: ChEMBL document CHEMBL1201862
